Reported IC50 values follow for various compounds
Target: hRIPK1 (aa 1-375) fusion protein (Homo sapiens, UniProt Q13546)
Construct: hRIPK1 (aa 1-375) fusion protein
Sequence (Q13546 1-375): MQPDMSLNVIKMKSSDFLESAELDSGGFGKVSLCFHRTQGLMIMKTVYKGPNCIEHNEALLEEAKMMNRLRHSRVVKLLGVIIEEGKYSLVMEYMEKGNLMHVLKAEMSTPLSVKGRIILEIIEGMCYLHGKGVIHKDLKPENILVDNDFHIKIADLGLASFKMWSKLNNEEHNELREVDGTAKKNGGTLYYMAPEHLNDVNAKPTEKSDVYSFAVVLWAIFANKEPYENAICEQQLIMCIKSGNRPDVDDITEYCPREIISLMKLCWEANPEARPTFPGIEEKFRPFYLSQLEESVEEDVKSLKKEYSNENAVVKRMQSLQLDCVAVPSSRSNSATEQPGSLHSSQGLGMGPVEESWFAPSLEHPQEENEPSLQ
Test: ADP-Glo kinase assay, RIPK1 autophosphorylation
Assay type: biochemical
Conditions: Table 1
testReadout: IC50 (nM)

| compound | testedTarget | testReadout | u | measurement |
| --- | --- | --- | --- | --- |
| N#Cc1cncc([C@@H]2CCON2C(=O)C2CCN(c3ncc(F)c(C(N)=O)n3)CC2F)c1 (some centres unmarked) [Ex. 154] | hRIPK1 (aa 1-375) fusion protein (Homo sapiens, UniProt Q13546) | IC50 | nM | 21.9 |
| COC(=O)c1ccnc(N2CCC(C(=O)N3OCCC3c3cncc(F)c3)CC2)n1 (racemic) | hRIPK1 (aa 1-375) fusion protein (Homo sapiens, UniProt Q13546) | IC50 | nM | 134 |
| CC1(C(=O)N2OCC[C@H]2c2cncc(C#N)c2)CCN(c2nccc(C(=O)O)n2)CC1 | hRIPK1 (aa 1-375) fusion protein (Homo sapiens, UniProt Q13546) | IC50 | nM | 70.4 |
| NC(=O)c1ccnc(N2CCC(C(=O)N3OCC[C@H]3c3cncc(N4CCC4=O)c3)CC2)n1 | hRIPK1 (aa 1-375) fusion protein (Homo sapiens, UniProt Q13546) | IC50 | nM | 101 |
| N#Cc1cncc([C@@H]2CCON2C(=O)C2CCN(c3cc(C(N)=O)ccn3)CC2)c1 | hRIPK1 (aa 1-375) fusion protein (Homo sapiens, UniProt Q13546) | IC50 | nM | 62.7 |
| CCOC(=O)c1ncnc(N2CCC(C(=O)N3OCC[C@H]3c3cncc(C#N)c3)CC2)c1F | hRIPK1 (aa 1-375) fusion protein (Homo sapiens, UniProt Q13546) | IC50 | nM | 30.9 |
| N#Cc1ccnc(N2CCC(F)(C(=O)N3OCC[C@H]3c3cnccn3)C(F)(F)C2)n1 (some centres unmarked) | hRIPK1 (aa 1-375) fusion protein (Homo sapiens, UniProt Q13546) | IC50 | nM | 39.2 |
| C[S+]([O-])c1nc(N2CCC(C(=O)N3OCC[C@H]3c3cncc(C#N)c3)CC2)ncc1F (some centres unmarked) | hRIPK1 (aa 1-375) fusion protein (Homo sapiens, UniProt Q13546) | IC50 | nM | 13.4 |

* * *

Reported IC50 values follow for various compounds
Target: hRIPK1 (aa 1-375) fusion protein (Homo sapiens, UniProt Q13546)
Construct: hRIPK1 (aa 1-375) fusion protein
Assay: ADP-Glo kinase assay, RIPK1 autophosphorylation
Assay type: biochemical
Details: Key compound table 4
Protocol: Evaluation of Receptor-Interacting Protein Kinase 1 Inhibition. The catalytic activity of RIPK1 was measured by monitoring the conversion of Adenosine triphosphate (ATP) to Adenosine diphosphate (ADP) due to autophosphorylation using an ADP-Glo kinase kit (Promega, catalog no. V9104). After another 240 minutes incubation at room temperature, 5 μl Promega ADP-Glo reagent I were added to quench the reaction and deplete unconsumed ATP. […]

| chemicalStructure | IC50, nM |
| --- | --- |
| N#Cc1cncc([C@@H]2CCON2C(=O)C2CCN(c3ncc(F)c(C(N)=O)n3)CC2)c1 | 11 |
| Cc1cncc([C@@H]2CCON2C(=O)C2CCN(c3nccc(C(N)=O)n3)CC2)n1 | 9 |
| NC(=O)c1nc(N2CCC(C(=O)N3OCC[C@H]3c3cnccn3)CC2)ncc1F | 8 |
| N#Cc1cncc([C@@H]2CCON2C(=O)C2CCN(c3nccc(C(N)=O)n3)CC2)c1 | 16 |

Value source: patent US12655139B2
